The origin of these recorded values is the supplement of paper PMC9170038.

# System: MS2 coat protein
# PROTOCOL DETAILS: apparent KD of MS2 coat protein; higher = weaker reporter binding
# EXPERIMENTAL CONDITIONS: Eterna round: R107; input ligand: none
Mark n for apparent KD of MS2 coat protein values under 0.08 µM, and y for everything at or above.

Examples from the recorded data:
CHAIN	LABEL
AAAUGAGGAUCACCCAUGUAACAACGGGAAGGAGCGCCAAACAAGGCAGGUAGGUCGCCCACAUGAGGAUCACCCAUGUGUUGGG [Exclusion Arginine A GF 28]	y
GUUAUAGACGGAAGGAGCGCGGCCACAUGAGGAUCACCCAUGUAUUGUGUUGGUAAUAGGUCGCAGGUAGGUCGCCGAUUAAUGA [Same State - Arginine B / A]	n
ACAUGAGGAUCACCCAUGUAAGAUGCAGAAGGAGCGGGAAAUAACCCAGGUAGGUCGCUGCGGUUUGGAUUAUUGUGUUCGUGAA [#08 Exclusion - Arginine A]	n
GGUUGGUGUAGAGAUAUAUUGAUUACUGAAGGAGCGGGACGAAACCCAGGUAGGUCGCAGAGAUCCACAUGAGGAUCACCCAUGU [!0.M]	n

Let's switch to this sequence now.
Please indicate if the recorded apparent KD of MS2 coat protein for AAAAUCCUACCUGAGGAUCACCCUGGUGAAGGAGCGCCCGAAAGGGCAGGUAGGUCGCACCUGAGGAUCACCCGGGUAACCUAAA [ArgEX 14 #DoubleMS2 #OpenEnded #AlternativeMS2] meets or exceeds 0.08 µM. y

* * *

# Tested on: K4 kissing-loop RNA reporter
# PROTOCOL DETAILS: apparent KD of K4 kissing-loop reporter; higher = weaker reporter binding
# EXPERIMENTAL CONDITIONS: Eterna round: R107; input ligand: arginine 13.2 mM
# apparent KD of K4 kissing-loop reporter per entry
Just the number in µM, nothing appended.

Example cases with answers are listed next.
CHAIN	apparent KD of K4 kissing-loop reporter / µM
CCACAAUAUGGAAGGAGCGCCAGUGAUGUUGGUGCUUGCUUUAGGUAAGACCGGCCUAUUUGGCAGGUAGGUCGCCAUAUUCAAC [Ageat]	0.0895
AUUGCGGCCGUUCUAUCACCAGGCGGAGAUACCAGAUGCCAGCAGAUCCCUUGGCAGCUCUGCACGAGAUCCAGUGAUGUUGGGU [theeternabot_exclusion_KL_Theo_A_9]	0.239
UUGUUUGGUUGAGAGGUUGGGCGAGAUGAUACCAGUAGAUAAGAAUACCCUUGGCAGCAUAAGAAAGAUAUAGUGAUGUUGUAUA [SSTheophA.N]	0.386

Let us examine a further case.
Please report the recorded apparent KD of K4 kissing-loop reporter for GCGCGGCACAGUGAUGUUGUGCCUCGGAGACGAGGACCGGUACGGCCGCCACUCGUCCGCGCAGCUGAGGCAAAAGCCUCGGCAA [Omei KL Tryp A SS B v4] . 0.393

* * *

# apparent KD of K4 kissing-loop reporter per entry
# Test system: K4 kissing-loop RNA reporter;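 further: bound reporter read as fluorescence of individual clusters on recovered sequencing chips by microscopy, with normalized cluster intensities fitted with a binding model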
# PROTOCOL DETAILS: apparent KD of K4 kissing-loop reporter; higher = weaker reporter binding
# EXPERIMENTAL CONDITIONS: Eterna round: R107; input ligand: theophylline 20 uM
Just the number in nM, nothing appended.

Example cases with answers are listed next.
CHAIN	TESTED TARGET	QUANTITY UNIT	apparent KD of K4 kissing-loop reporter
UAAGAAUAAGAUGCAGUGAUGUUGCAUCUACGAGGACCGGUACGGCCGCCACUCGAGGUCCUCGAACUGCAUCAGAGGACAAUAA [(H,1)-(H,2)-(Trp1)-(Trp2)-(T)'-(H)'-(T)'']	K4 kissing-loop RNA reporter	nM	390
UGUGUUGUUUUGAUGUUUGGUGUUGCAUGGCAGGAUAUCGUAGAGGCGAGAAGGGCUUGUGAGCGGUAUGAGUGAUGUUUGUAGG [bbgbmullin]	K4 kissing-loop RNA reporter	nM	400

Please report the recorded apparent KD of K4 kissing-loop reporter for ACGAUUUACAGAAGGAGCGUGUAUUUAUCUACAAUUUUCUUAGCGAGUGAUGUUCGUUAUACACAGGUAGGUCGCUGUAUAUCGA [JR_ExcArginiB_Sub013] . 199

Please report the recorded apparent KD of K4 kissing-loop reporter for UUUAACGAGUGAUGUUCGUAAAGUAAUAGUUAGGAUAUCGUUUUUUCGAGAAGGAACUUCGAAGUGAUACGAAAGUAUCGCUUCG [FMN A 8] . 205

* * *

# Tested on: MS2 coat protein
# PROTOCOL DETAILS: apparent KD of MS2 coat protein; designed switch direction (-1 OFF switch, 1 ON switch): 1; higher = weaker reporter binding
# EXPERIMENTAL CONDITIONS: input ligand: microRNA oligo, concentration not stated
QUANTITY NAME: apparent KD of MS2 coat protein (nM)
Just the number in nM, nothing appended.

Example cases with answers are listed next.
CHAIN	TESTED TARGET	QUANTITY NAME	QUANTITY UNIT	MEASURED NUMBER
UUAUCUCAGACAUGAGGAUCACCCAUGUUUUUUUGUCUUUGACAGGAUAUAGUUGUUUCGUUUUACUAGAAGGGUCAUUUUAUU [JR_SSNG3_Sub024] (Eterna round: R96, puzzle: Same State NG 3)	MS2 coat protein	apparent KD of MS2 coat protein	nM	20.8
GGAGCCAAGGCAGGAUAUUCAUAUUAAAACAUGAGGAUCACCCAUGUAAAGGCCAGAAGGCCGUGGGAGAAGGGCCAUGGCUCG [Xeonanis - 13 mod15] (Eterna round: R96, puzzle: Same State NG 2)	MS2 coat protein	apparent KD of MS2 coat protein	nM	51.7

Please report the recorded apparent KD of MS2 coat protein for UGUUGUAAUACAGGAUAUAUAUUAUUUUUAUUUAUAGAAGGGUAAUCACAUGAGGAUCACCCAUGUAUAUACGAGGAAGAAGAG [JMF's solution 3] (Eterna round: R96, puzzle: Same State NG 1) . 139

* * *

# Tested on: MS2 coat protein
# PROTOCOL DETAILS: apparent KD of MS2 coat protein; higher = weaker reporter binding
# EXPERIMENTAL CONDITIONS: Eterna round: R107; input ligand: arginine 13.2 mM
# apparent KD of MS2 coat protein per entry

Please report the recorded apparent KD of MS2 coat protein for CACGGCCAUGAGGAUCACCCAUGGAAUAAUCGAGGACCGGUACGGCCGCCACUCGUGGACCGUGACCUGUACGAAAAGUGCAGGA . 20.8 nM

Please report the recorded apparent KD of MS2 coat protein for CUCCCGUGGUCGGCCGCCACUGGAGGCCUCGCGCGACAUGAGGAUCACCCAUGUUGGCCCGGCCUCAGGACCGGGAUCGCGUGAG [#1 Same State - Tryptophan B Attempt #7 (HarryS)] . 11.2 nM

Please report the recorded apparent KD of MS2 coat protein for UUCAUGAGGAUUGAUACCAGCCACCAACAUGAGGAACUUACAUGAGGAUCACCCAUGUGAGGCCCUUGGCAGCAAGCAUACAUGA [Exclusion Theophylline B 3] . 10.1 nM

Please report the recorded apparent KD of MS2 coat protein for AUCCUUAAUAGGGUAAAUGGAUAAAGUGAUACCAGUCAAAUACAAGACCCUUGGCAGCACAAGGACAUGAGGAUCACCCAUGUCA [Same State Theophylline A GF21] . 20.9 nM

Please report the recorded apparent KD of MS2 coat protein for ACAUGAGGAUCACCCAUGUGAUGGCACGAUACCAGCUGAUCCCGUGGCCCUUGGCAGCGUCCGGUGUGGUCCGGCGGGUGGGACG [qqwmullin] . 30.1 nM

Please report the recorded apparent KD of MS2 coat protein for CUCUGAGUCCGUAAGGACUCAGAGGCGGAUACCAGCGAGGUCCAUCGCCCUUGGCAGCCGAACAUGAGGAUCACCCAUGUCGGUA [#1 Same State - Theophylline A Attempt #25 (HarryS)] . 11.6 nM

Please report the recorded apparent KD of MS2 coat protein for GUCGUGGUCGGAAGGAGCGACAUGAGGAUCACCCAUGUCUCCCGUUAUGGGAGUUCCUUAGGUCAGGUAGGUCGCCGACUGCGGC [#1 Exclusion - Arginine B Attempt #23 (Inspired by Omei)] . 54.7 nM

Please report the recorded apparent KD of MS2 coat protein for ACAUGAGGAUCACCCAUGUGCCGUCUUGAUACCAGACCCGAAGUAGUCCCUUGGCAGCAACUACGUGAGGGUCGCCCAUGUGUAG [5kullin] . 16.1 nM

* * *

# Tested on: MS2 coat protein
# PROTOCOL DETAILS: apparent KD of MS2 coat protein; higher = weaker reporter binding
# EXPERIMENTAL CONDITIONS: Eterna round: R107; input ligand: theophylline 2 mM
# apparent KD of MS2 coat protein per entry
Just the number in nM, nothing appended.

Example cases with answers are listed next.
CHAIN	apparent KD of MS2 coat protein / nM
AGCACUGUGACGGCCGCCACUAUAUUAGGGUGGUAAGGUUCAUAAAUACAUGAGGAUCACCCAUGUAGGACCGGGUCUCAGUGCA [Omei Trp Exc B A v2]	13.5
GUCUUGGGAUCGGCCGCCACUACAUGAGGAUCACCCAUGUGGACAAAUAGGGUUGUUAAGCUCGGUAGGACCGGGAUUCGGACAU [Oncetexeza]	27.3
CGUAUUGGAAACAGUACGAGUGAUCCGGUCCGAGGACCGGUACGGCCGCCACUCGAAAUUAAUAAACAUGAGGAUCACCCAUGUA [Ex Tryptophan A 10]	20.2
GCUGUACCAUGAAGGAGCGCUUUAAUUAUAGAAGAUACAUGAGGAUCACCCAUGUUCCUCGAGCAGGUAGGUCGCAUGGUACAGC [SSAB #18]	27
GAUAUAUACUCGGCCGCCACUGAGAGAGUCAUGUAAACAUGAGGAUCACCCAUGUAAUAUAUAUACAGGACCGGGAGUAUAUUAA [4.C]	14
AACAGUUGGUCGGCCGCCACUACAUGAGGAUCACCCAUGUAGCGCGUUCUGCUCCAGGGCUCAUCUAGGACCGGGACACGAGUGU [Raa]	14.5
CAAUAUAUAACGGCCGCCACUUACUCAUGAGGUAACAACAUGAGGAUCACCCAUGUUUGAGGAUCAAGGACCGGGUUAUAUAUUG [AstrosSSTry#19]	27.1

Quick check: apparent KD of MS2 coat protein on MS2 coat protein, item GGACUAACCUGAAGGAGCGGCGCGCAGAAACUGCAAAUUCCUCCACACGAGGAUCACCCGUGUCAGGUAGGUCGCAGGUUAGUCG [ArgBX 28] ? 12.6
